Tested on: P. aeruginosa ATCC 27853
Test: MIC broth microdilution, P. aeruginosa ATCC 27853
Format: cell-based
Settings: Table 1; geometric mean
attribute measured: Geometric Mean MIC values, P. aeruginosa ATCC 27853
Please give the number followed by its unit.

// batch mode: one Geometric Mean MIC values, P. aeruginosa ATCC 27853 value per listed entry
1. CC(N)C1CCC(N)C(OC2C(N)CC(N)C(O)C2OC2OC(CO)C(OC3OC(CN)C(O)C(O)C3N)C2O)O1 (stereo not shown) [drawing 849]
2. CCC(N)C1CCC(N)C(OC2C(N)CC(N)C(O)C2OC2OC(CO)C(OC3OC(CN)C(O)C(O)C3N)C2O)O1 (stereo not shown) [drawing 851]

0.71 µg/mL
2 µg/mL

Go through the items and report each one's Geometric Mean MIC values, P. aeruginosa ATCC 27853.
1. CC(N)C1CCC(N)C(OC2C(N)CC(N)C(O)C2OC2OC(CO)C(OC3OC(CN)C(O)C(O)C3N)C2O)O1 (stereo not shown) [drawing 850]
2. NCC1OC(OC2C(CO)OC(OC3C(O)C(N)CC(N)C3OC3OC(CN)C(O)C(F)(F)C3N)C2O)C(N)C(O)C1O (stereo not shown) [drawing 854]
3. NCC1CCC(N)C(OC2C(N)CC(N)C(O)C2OC2OC(CO)C(OC3OC(CN)C(O)C(O)C3N)C2O)O1 (stereo not shown) [drawing 848]
4. NCC1OC(OC2C(CO)OC(OC3C(O)C(N)CC(N)C3OC3OC(CN)C(O)C(F)C3N)C2O)C(N)C(O)C1O (stereo not shown) [drawing 853]
5. CCC(N)C1CCC(N)C(OC2C(N)CC(N)C(O)C2OC2OC(CO)C(OC3OC(CN)C(O)C(O)C3N)C2O)O1 (stereo not shown) [drawing 852]

["2 µg/mL", "4 µg/mL", "0.57 µg/mL", "1 µg/mL", "1 µg/mL"]
